- System: AKR/Lw mice, AKR lymphoma ip, median survival T/C
- assay_notes: NCI In Vivo Anticancer Drug Screen. Data for tumor model Lymphoma AKR (Transplanted) (intraperitoneal) in AKR/Lw mice
- experimental_conditions: endpoint: median survival time; dose: 200.0 mg/kg/injection; schedule: Q01DX001 (ip); vehicle: Klucel (hydroxypropylcellulose) (HPC); higher = longer survival
Inconclusive results and toxic doses are left out.
Below: a set of entries, each annotated with reported T/C.
measured_metric: T/C

                                    compound    endpoint_value
 0        C/C=C(/Cl)c1c(C)cc(C)c(CC(=O)O)c1C  106 % of control
 1  Cc1ccc(S(=O)(=O)Nc2ccccc2-c2nc3c(Cl)ccc(Cl)c3c(=O)o2)cc1  103 % of control
 2                 CC(C)c1c[nH]c(=O)[nH]c1=O   86 % of control
 3  O=C(Cc1ccc2cc3c(cc2c1)OCO3)NCCc1ccc2c(c1)OCO2   94 % of control
 4     O=C(/C=C/c1cccc([N+](=O)[O-])c1)NCCBr  104 % of control
 5  NS(=O)(=O)c1ccc(N=Nc2nc3ncnc(SCc4cccs4)c3[nH]2)cc1  102 % of control
 6  COC(=O)C1(C)CCC(c2ccc(OC)cc2)C(CC(=O)O)C1=O (configuration not stated)  113 % of control
 7                     CC(=O)c1ccc2ccccc2c1O   88 % of control
 8                       O=C(c1ccccc1)C1CCC1   95 % of control
 9                  COC(=O)CC(=O)c1ccc(C)cc1  103 % of control
10  OCC1=C(CO)C2(Cl)C(Cl)=C(Cl)C1(Cl)C2(Cl)Cl   95 % of control
11  COc1cc2c(cc1OC)C(C#N)C2 (configuration not stated)  100 % of control
